Assay: soluble fraction after stress (log2 fold change); higher = more stays soluble; pooled small domains, quantitative proteomics
Conditions: stress: pH 4
Please go through the items and note down their soluble fraction (log2).
Write the value as a bare number.

Ask | Return value of soluble fraction (log2) for input HMQVTPQVLRLLDVLGDKELSLRQIAEALGLSDRKNIMRNYVVPALDSGRVVRTVPNKPNSRFQKYRK , no commentary.
Reply | 0.0808

Ask | Return value of soluble fraction (log2) for input HMNVGKYILTLAAKEGYSQSDVARRTGISRQMLSYIIAGERKLTLPQALKIESLLSLKTGTLILMQDED , no commentary.
Reply | 0.219

Ask | Return value of soluble fraction (log2) for input HMTQFSASSERAGAGGAYRTTLRAMEQNGDLLQISILLPDAVTAKHAATVWPERAQAIYTAILSELLK , no commentary.
Reply | -0.167

---

Assay: soluble fraction after stress (log2 fold change); higher = more stays soluble; pooled small domains, quantitative proteomics
Conditions: stress: pH 4
Please go through the items and note down their soluble fraction (log2).
Write the value as a bare number.

Ask | Return value of soluble fraction (log2) for input HMYIVVPDLSKKDINEVANILAAQSLRFQVIDSANFRSDFPKNAVISQKPLAGSEVKVNKKIYLQLNPS , no commentary.
Reply | -0.608

Ask | Return value of soluble fraction (log2) for input HMARDPWDVLGVAKTATNDEIKRAFKRQAMMTHPDKQGGSEERFKEVNEAYSHIKDEQSRAKYQNSQ , no commentary.
Reply | 0.0164

Ask | Return value of soluble fraction (log2) for input HMNLGAHVYWRNHRAYGDFREYEDVGGGREALALPGSTWGTKDPRVAQALFAARLTEFQEARVGR , no commentary.
Reply | -0.148

Ask | Return value of soluble fraction (log2) for input HMKNAYDLKMLVKDNDGNIERNMKYYFFLANGSKVEGITDDNGYTKTITTIQPEKADLHLINDELI , no commentary.
Reply | -0.0557

Ask | Return value of soluble fraction (log2) for input HMGTESFGARIRKIREARDWTPAALAEATGQTPEFVARVERDEVAPPVAFLLRLAAALGVDPSTF , no commentary.
Reply | -0.672

Ask | Return value of soluble fraction (log2) for input HMSLNHDIWVQELKEKRSGYGISQSRLAIAAGMTRQYLSDIETGKVLPSAERKAAITEALERFNPD , no commentary.
Reply | -0.213

Ask | Return value of soluble fraction (log2) for input HMVLELRIGQIVRGVLLQLVGEREGIVSVGGVPVRARLEAEIPLGRGVMLQVQPGSDANNILLKPV , no commentary.
Reply | -0.139

---

Test: soluble fraction after stress (log2 fold change); higher = more stays soluble; pooled small domains, quantitative proteomics
Details: stress: pH 4
property-name: soluble fraction (log2)

Ask | Return value of soluble fraction (log2) for input HMKLASIGDNIHTLRKNKGLTQSQLAGKLGVNVDTISNYEKGVSTPDFDIVEKLVNIFNVDAHSLLFK , no commentary.
Reply | -0.351

Ask | Return value of soluble fraction (log2) for input HMSETLESYTTRLKQLEEIADSFQGVDKTFAIQAGREIRVMVVPEQISDDDMILLARDISNQIEENLDY , no commentary.
Reply | -0.912

Ask | Return value of soluble fraction (log2) for input HMGISSESIKTFIREIVENEDPKAPLSDQTMVELLAERGIDISRRTVAKYRDEMNLPSSSKRKR , no commentary.
Reply | -0.168

Ask | Return value of soluble fraction (log2) for input HMPTFAEKLHEVRKARDFTQDQLAKEMNVSRQTISHWENGRAVPDIDTIKHLSQVLDYNFLV , no commentary.
Reply | -0.171

Ask | Return value of soluble fraction (log2) for input HMNIDGLIGKKALVTADIDNVNSKGQIKINGLEWTARSVDDEPIPMGTEVEITAISGVKAIVRKG , no commentary.
Reply | 0.309

Ask | Return value of soluble fraction (log2) for input HMEDKPITKEQKQAMFALLREHFSGDEGNAVYTAVLEREGLAPGDKIMSSVYDRLIDGINEAIRQKLEAGA , no commentary.
Reply | -0.133

Ask | Return value of soluble fraction (log2) for input HMPLLELPDDFYPAWKPKTIYVQGQRIMLDGVAFEAKWWTQGDNPASGQADPGSSPWRTLTQEEIAKLLE , no commentary.
Reply | -0.56

Ask | Return value of soluble fraction (log2) for input HMTGIQLNDRERAILQHLSDGLTTKAIAERIFLREDTVKWYRKNLLARFEQPIVAALVKWAVLEGLV , no commentary.
Reply | 0.409
